# Experimental Target: T1, CD32a-H131 (FcgRIIa-H131) (Homo sapiens, UniProt P12318)
# T1 sequence (P12318 34-217 limits assumed): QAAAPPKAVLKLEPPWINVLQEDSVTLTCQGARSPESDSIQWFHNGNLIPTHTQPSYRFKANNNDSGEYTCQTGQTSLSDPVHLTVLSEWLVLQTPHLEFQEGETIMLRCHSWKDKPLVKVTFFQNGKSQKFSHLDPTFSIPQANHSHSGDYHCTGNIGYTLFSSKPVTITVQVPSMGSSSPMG
# Procedure Summary: SPR, antibody binding to anti-his Fab captured FcgR-his (% Rmax)
# Assay Setup: 1 μM antibody
Property Measured: % Rmax hCD32a-H131 (%)
All answers are understood in %, so give the number only.

{"columns": ["Molecule", "Unit Symbol", "% Rmax hCD32a-H131"],
 "data": [
  ["mAb7-IgG2.5 (protein, left off: another chain or arm of the molecule) constant: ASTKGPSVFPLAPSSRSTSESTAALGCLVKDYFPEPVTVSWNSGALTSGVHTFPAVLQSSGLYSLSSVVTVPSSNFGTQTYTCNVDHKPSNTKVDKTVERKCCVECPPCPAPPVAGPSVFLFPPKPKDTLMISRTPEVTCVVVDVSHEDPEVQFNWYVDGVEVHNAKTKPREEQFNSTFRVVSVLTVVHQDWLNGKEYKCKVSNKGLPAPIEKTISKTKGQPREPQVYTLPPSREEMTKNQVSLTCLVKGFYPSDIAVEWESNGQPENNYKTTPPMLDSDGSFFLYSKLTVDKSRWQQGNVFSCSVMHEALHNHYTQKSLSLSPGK", "%", 72]
]}

Measured % Rmax hCD32a-H131, mAb7-IgG2.3G1-AY-V27 (protein, left off: another chain or arm of the molecule) constant: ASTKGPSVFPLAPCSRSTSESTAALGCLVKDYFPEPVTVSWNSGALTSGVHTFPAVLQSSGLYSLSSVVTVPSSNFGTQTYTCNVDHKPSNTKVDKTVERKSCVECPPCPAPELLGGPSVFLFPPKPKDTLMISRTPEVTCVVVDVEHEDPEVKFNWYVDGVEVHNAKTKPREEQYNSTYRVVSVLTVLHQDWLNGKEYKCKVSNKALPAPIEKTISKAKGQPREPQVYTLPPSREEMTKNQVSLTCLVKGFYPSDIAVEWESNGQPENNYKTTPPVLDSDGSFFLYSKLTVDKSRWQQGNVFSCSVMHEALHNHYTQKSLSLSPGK : 68

Origin of the recorded values: patent US20190284293A1
